target: recombinant human 5-HT5A receptor (Homo sapiens); construct: expressed in transfected cells; host or cells: HEK-EBNA (Human Embryonic Kidney-EBNA) cells, transient cDNA expression; membranes; test: [3H]LSD radioligand binding assay; conditions: [3H]LSD (approximately 1 nM); membranes from transiently expressed 5-HT5A receptors in HEK-EBNA cells; Ki from IC50 by Cheng-Prussoff equation
Sequence (P47898 whole entry): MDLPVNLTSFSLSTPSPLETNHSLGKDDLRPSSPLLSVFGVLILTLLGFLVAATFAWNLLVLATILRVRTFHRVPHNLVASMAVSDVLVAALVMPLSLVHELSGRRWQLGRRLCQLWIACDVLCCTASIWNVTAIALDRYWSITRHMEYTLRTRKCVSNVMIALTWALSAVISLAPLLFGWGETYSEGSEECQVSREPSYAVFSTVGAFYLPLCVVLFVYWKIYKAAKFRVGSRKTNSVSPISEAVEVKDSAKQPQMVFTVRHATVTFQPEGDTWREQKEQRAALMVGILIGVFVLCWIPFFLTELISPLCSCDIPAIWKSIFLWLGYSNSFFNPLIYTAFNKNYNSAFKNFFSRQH
quantity: Ki (nM)

The examples below pair each entry with its known result.
[
  {
    "compound": "COc1cccc2c1C(Nc1ccc3cc(NC(=O)NC4CCN(CCO)CC4)ccc3n1)CC2 (racemic)",
    "tested_system": "recombinant human 5-HT5A receptor (Homo sapiens)",
    "Ki [nM]": 1.8
  },
  {
    "compound": "CN1CCC(NC(=O)Nc2ccc3nc(N[C@@H]4CCc5ccccc54)ccc3c2)CC1",
    "tested_system": "recombinant human 5-HT5A receptor (Homo sapiens)",
    "Ki [nM]": 1.8
  },
  {
    "compound": "O=C(Nc1ccc2nc(N[C@@H]3CCc4ccccc43)ccc2c1)NC1CCN(CCC(F)(F)F)CC1",
    "tested_system": "recombinant human 5-HT5A receptor (Homo sapiens)",
    "Ki [nM]": 10.4
  },
  {
    "compound": "O=C(Nc1ccc2nc(N[C@@H]3CCc4ccccc43)ccc2c1)NC1CCN(C2CC2)CC1",
    "tested_system": "recombinant human 5-HT5A receptor (Homo sapiens)",
    "Ki [nM]": 4.1
  }
]

1: CC(C)N1CCC(NC(=O)Nc2ccc3nc(N[C@@H]4CCc5ccccc54)ccc3c2)CC1
2: CSCCN1CCC(NC(=O)Nc2ccc3nc(N[C@@H]4CCc5ccccc54)ccc3c2)CC1
3: CC(C)N=C(Nc1ccc2nc(N[C@@H]3CCc4ccccc43)ccc2c1)NC(C)C
Request: Hey, can you sort those compounds up there by Ki, smallest first? API: response body holds the labels in the requested order.
Result: 1, 2, 3

1: COc1cccc2c1C(Nc1ccc3cc(NS(=O)(=O)N4C[C@@H]5C[C@H]4CO5)ccc3n1)CC2 (stereo partly drawn)
2: CC(C)(C)NC(=O)Nc1ccc2nc(N[C@@H]3CCc4ccccc43)ccc2c1
Request: Just tell me: smaller Ki value, 1 or 2 ? Use the label to indicate which entry you chose.
Result: 1

a: COCCN1CCC(NC(=O)Nc2ccc3nc(NC4CCc5cccc(OC)c54)ccc3c2)CC1 (racemic)
b: CC(C)NC(=O)Nc1ccc2nc(NC3CCc4cccc(F)c43)ccc2c1 (racemic)
c: O=S(=O)(Nc1ccc2nc(N[C@@H]3CCc4ccccc43)ccc2c1)N1CCC(F)(F)C1
Request: Please list the entries, largest Ki first. API: response body holds the labels in the requested order.
Result: c, b, a

a: O=C(Nc1ccc2nc(N[C@@H]3CCc4ccccc43)ccc2c1)NC1CCOCC1
b: COc1cccc2c1C(Nc1ccc3cc(NS(=O)(=O)N(C)C)ccc3n1)CC2 (racemic)
c: COc1cccc2c1C(Nc1ccc3cc(NC(=O)N(C)C4CCN(CC(C)(C)O)CC4)ccc3n1)CC2 (racemic)
Request: Hey, can you sort those compounds up there by Ki, smallest first? API: response body holds the labels in the requested order.
Result: b, a, c
